Experimental Target: Casein kinase II subunit alpha [1-337] (Homo sapiens)
Construct: 1-337
Sequence (P68400 1-337): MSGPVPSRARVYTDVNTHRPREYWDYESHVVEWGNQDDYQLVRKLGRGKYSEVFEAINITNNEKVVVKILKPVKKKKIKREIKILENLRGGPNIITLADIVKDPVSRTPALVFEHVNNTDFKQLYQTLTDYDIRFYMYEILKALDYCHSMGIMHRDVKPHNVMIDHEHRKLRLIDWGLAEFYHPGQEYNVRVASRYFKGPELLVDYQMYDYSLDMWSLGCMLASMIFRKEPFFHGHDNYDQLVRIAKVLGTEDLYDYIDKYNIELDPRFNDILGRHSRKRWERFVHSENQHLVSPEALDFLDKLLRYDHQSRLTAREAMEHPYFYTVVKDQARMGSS
Measurement Notes: Molecular Docking
pIC50: −log10 of the molar value.
Measurement Kind: pIC50

Return the recorded pIC50 value; entry: "N#Cc1ccc2c(c1)nc(-c1ccc(Cl)cc1)c1ccncc12"
< 5.60
